Protocol Description: AUCinfinity in rat at 2 mg/kg, iv
Type: ADME, organism-based
Parameters: dose 2 mg/kg, time infinity, route intravenous
Conditions: in vivo
Assay Endpoint: AUC(0-inf) (ng·h/mL)

{"columns": ["Smiles Record", "Assay Endpoint", "Unit Symbol", "Measured Number"],
 "data": [
  ["Cc1nnc2c(Nc3cccc(CNC(=O)OC(C)(C)C)c3)nc3ccccc3n12", "AUC(0-inf)", "ng·h/mL", 4020]
]}

---

Measured Target: Bromodomain-containing protein 4 (Homo sapiens, UniProt O60885)
Protocol Description: Binding affinity to BRD4 BD2 (unknown origin)
pKd: −log10 of the molar value.
Assay Endpoint: pKd

{"columns": ["Smiles Record", "Measured Target", "Assay Endpoint", "Measured Number"],
 "data": [
  ["Cc1nnc2c(Nc3cccc(CNC(=O)C(C)C)c3)nc3ccccc3n12", "Bromodomain-containing protein 4 (Homo sapiens, UniProt O60885)", "pKd", 8.05]
]}
